Target: tau (Homo sapiens)
Sequence (P10636 623-695 limits assumed): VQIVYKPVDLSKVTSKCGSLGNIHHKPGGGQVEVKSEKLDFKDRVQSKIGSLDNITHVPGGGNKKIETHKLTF
Assay: MCE Phenols Library screening, tau biosensor cell seeding assay (AvZ)
Type: cell-based
Conditions: puncta, replicate 2
hey, just use met if measured raw data 2 is less than 5000, otherwise not met

compound | answerLabel
CC(=O)c1c(C)cc2cccc(O)c2c1O | not met
CCCCCCCCCCCCCCCc1cccc(O)c1C(=O)O | not met
O=C(/C=C/c1ccc(O)c(O)c1)O[C@@H]1C[C@](O)(C(=O)O)C[C@@H](OC(=O)/C=C/c2ccc(O)c(O)c2)[C@H]1O | not met
Oc1c(Br)cccc1Br | not met
COc1ccc(-c2oc3c(CC=C(C)C)c(O[C@@H]4O[C@H](CO)[C@@H](O)[C@H](O)[C@H]4O)cc(O)c3c(=O)c2O[C@@H]2O[C@@H](C)[C@H](O)[C@@H](O)[C@H]2O[C@@H]2O[C@H](CO)[C@@H](O)[C@H](O)[C@H]2O)cc1 [Epimedin A] | met
CCCCCCCCC/C=C/C(=O)CCc1ccc(O)c(OC)c1 [[10]-Shogaol] | not met
Oc1cccc(O)c1O | met
O=c1ccc2cc(O)ccc2o1 [6-Hydroxycoumarin] | not met
Cc1cc(O)cc(C)c1O [2,6-Dimethylhydroquinone] | not met
COc1cc([C@@H]2Oc3c(O)cc([C@H]4Oc5cc(O)cc(O)c5C(=O)[C@@H]4O)cc3[C@H]2CO)ccc1O | not met
O=c1cc(-c2ccc(O)cc2)oc2c([C@@H]3O[C@H](CO)[C@@H](O)[C@H](O)[C@H]3O)c(O)c([C@@H]3OC[C@H](O)[C@H](O)[C@H]3O)c(O)c12 [Isoschaftoside] | not met
O=C(/C=C/c1ccc(O)cc1)NCCc1c[nH]c2ccc(O)cc12 | not met
O=C(/C=C/c1ccc(O)c(O)c1)O[C@H]1[C@H](O)C[C@](O)(C(=O)O)C[C@H]1O | not met
O=C(O)CC(O)(CC(=O)OCc1ccc(O[C@@H]2O[C@H](CO)[C@@H](O)[C@H](O)[C@H]2O)cc1)C(=O)O (stereo partly drawn) | not met
O=C(CCc1ccc(O)c(O)c1)NCCCNCCCCNCCCNC(=O)CCc1ccc(O)c(O)c1 | met
O=C(O)c1cc(O)c2c(c1)[C@H]([C@H]1c3cc(C(=O)O)cc(O)c3C(=O)c3c(O[C@@H]4O[C@H](CO)[C@@H](O)[C@H](O)[C@H]4O)cccc31)c1cccc(O[C@@H]3O[C@H](CO)[C@@H](O)[C@H](O)[C@H]3O)c1C2=O [Sennoside A] | met
O=c1cc(-c2ccc(O)c(O)c2)oc2cc(O[C@@H]3O[C@H](CO)[C@@H](O)[C@H](O)[C@H]3O)c(O)c(O)c12 [6-Hydroxyluteolin 7-glucoside] | met
O=C1c2ccccc2C(=O)c2c(O)ccc(O)c21 | not met
CC(=O)O[C@@H](CC=C(C)C)C1=CC(=O)c2c(O)ccc(O)c2C1=O | not met
Cl.Oc1ccc(CC2NCCc3cc(O)c(O)cc32)cc1 (stereo not drawn) [Higenamine (hydrochloride)] | met
O=c1cc(-c2ccc(O)c(O)c2)oc2c([C@@H]3O[C@H](CO)[C@@H](O)[C@H](O)[C@H]3O)c(O)cc(O)c12 | not met
Cl.NCC(O)c1ccc(O)c(O)c1 (racemic) [DL-Norepinephrine (hydrochloride)] | not met
CC1(C)C=Cc2c(ccc3c2OC[C@@H](c2ccc(O)cc2O)C3)O1 | not met
CCCCC[C@H](O)CC(=O)CCc1ccc(O)c(OC)c1 [[6]-Gingerol] | not met
COc1c(/C=C/C(=O)c2ccc(O)c(CC=C(C)C)c2)ccc(O)c1O | not met
OC[C@H]1O[C@@H](Oc2cc3c(O)cc(O)cc3[o+]c2-c2ccc(O)c(O)c2)[C@H](O)[C@@H](O)[C@H]1O.[Cl-] [Cyanidin-3-O-galactoside (chloride)] | met
COc1cc2ccc(=O)oc2c(O)c1O | met
COc1cc(O)c2c(c1)O[C@H](c1ccc(O)cc1)CC2=O | not met
